Reference source for all entries: ChEMBL document CHEMBL1137396

system: Huh-5-2; assay: Cytotoxicity against hepatoma cell line containing HCV replicon measured as change in GAPDH RNA level; type: functional, Homo sapiens
MEASURED_ATTRIBUTE: Activity

Below, each entry is followed by its recorded Activity result.
compound="CN(C(=O)N[C@H](C(=O)N1C[C@H]2[C@@H]([C@H]1C(=O)NC(CC1CC1)C(=O)C(N)=O)C2(C)C)C(C)(C)C)C(C)(C)C (stereo partly drawn)" measured_attribute=Activity measured_value=">5 µM"
compound="CC(C)(C)OC(=O)N[C@H](C(=O)N1C[C@H]2[C@@H]([C@H]1C(=O)NC(CC1CCC1)C(=O)C(N)=O)C2(C)C)C1CCCCC1 (stereo partly drawn)" measured_attribute=Activity measured_value=">5 µM"

Now look at this one.
Name the reported Activity value associated with the compound CC(C)(C)OC(=O)N[C@H](C(=O)N1C[C@H]2[C@@H]([C@H]1C(=O)NC(CC1CC1)C(=O)C(N)=O)C2(C)C)C1Cc2ccccc2C1 (stereo partly drawn) >5 µM
